Exercise: for every item that follows, state its recorded LD0 (maximum dose not causing any mortality in 8 days).
Test system: mice
assay.summary: Study of the acute toxicity
Type: in vivo
test.settings: oral
Procedure: The lethal doses LD50 of the different compounds tested were evaluated after administration orally to mice. The maximum dose not causing any mortality in 8 days was called the LD0 and the following results were obtained.
Answers are plain numbers, in mg/kg.

Record LD0 (maximum dose not causing any mortality in 8 days) per entry; entries follow.
1. O=C(Nc1cccc2[nH]ccc12)c1ccccc1OCC(O)CN1CCN(C(c2ccccc2)c2ccccc2)CC1 (stereo not drawn)
2. Cn1ccc2c(NC(=O)c3ccccc3OCC(O)CNC(C)(C)C)cccc21 (stereo not drawn)
3. CC(C)(C)NCCOc1ccccc1C(=O)Nc1cccc2[nH]ccc12.Cl
4. CC(C)(C)NCCOc1ccccc1NC(=O)c1cccc2[nH]ccc12
5. CC(C)(C)NCC(O)COc1ccccc1NC(=O)c1cccc2[nH]ccc12 (stereo not drawn)
6. CC(C)(C)NCCCOc1ccccc1C(=O)Nc1cccc2[nH]ccc12
7. CCC(C)(C)NCCCOc1ccccc1C(=O)Nc1cccc2[nH]ccc12
8. O=C(Nc1cccc2[nH]ccc12)c1ccccc1OCCCNCC1CCCCC1

Result:
400
80
60
80
80
200
80
100

Record LD0 (maximum dose not causing any mortality in 8 days) per entry; entries follow.
1. CC(C)(C)NCC(O)COc1ccc([N+](=O)[O-])cc1C(=O)Nc1cccc2[nH]ccc12 (stereo not drawn)
2. CCC(C)(C)NCCCOc1ccccc1NC(=O)c1cccc2[nH]ccc12

Result:
1: 200; 2: 200

###

System: Rat caudal arteries
assay.summary: Test of calcium-antagonistic activity in vitro (K+ depolarized caudal arteries)
Assay type: cell-based
test.settings: 100 mM K+, 37° C., read-out: IC50, inhibition of the contraction due to K+ ions
reported.metric: pIC50
Numbers only, as −log10 of the molar value.

>>> df
                                   compound  experimental_system  reported_metric  recorded_number
0  O=C(Nc1cccc2[nH]ccc12)c1ccccc1OCCCNC1CCCCC1  Rat caudal arteries            pIC50             5.74
1  COc1cc(CCN2CCN(CCCCOc3ccccc3C(=O)Nc3cccc4[nH]ccc34)CC2)cc(OC)c1OC  Rat caudal arteries            pIC50             5.55

Record pIC50 per entry; entries follow.
1. CC(C)(C)CC(C)(C)NCC(O)COc1ccccc1C(=O)Nc1cccc2[nH]ccc12 (centres unmarked)
2. CCC(C)(C)NCC(O)COc1ccccc1C(=O)Nc1cccc2[nH]ccc12 (centres unmarked)
3. O=C(Nc1cccc2[nH]ccc12)c1ccccc1OCC(O)CN1CCN(C(c2ccccc2)c2ccccc2)CC1 (centres unmarked)
4. CC(C)(C)NCCCCOc1ccccc1C(=O)Nc1cccc2[nH]ccc12
5. Cn1ccc2c(NC(=O)c3ccccc3OCC(O)CNC(C)(C)C)cccc21 (centres unmarked)

Result:
[6.36, 5.60, 6.60, 5.20, 5.06]

Record pIC50 per entry; entries follow.
1. C#CC(C)(C)NCC(O)COc1ccccc1C(=O)Nc1cccc2[nH]ccc12 (centres unmarked)
2. CCC(C)(C)NCCCOc1ccccc1C(=O)Nc1cccc2[nH]ccc12
3. CC(C)(C)NCC(O)COc1ccc(Cl)cc1C(=O)Nc1cccc2[nH]ccc12 (centres unmarked)
4. Cn1ccc2c(NC(=O)c3ccccc3OCC(O)CN3CCN(C(c4ccccc4)c4ccccc4)CC3)cccc21 (centres unmarked)
5. O=C(Nc1cccc2[nH]ccc12)c1ccccc1OCCCNCC1CCCCC1
6. COc1ccc(C(=O)Nc2cccc3[nH]ccc23)c(OCC(O)CNC(C)(C)C)c1 (centres unmarked)
7. CC(C)(CO)NCCCOc1ccccc1C(=O)Nc1cccc2[nH]ccc12

Result:
5.05
5.10
5.27
5.52
5.41
5.10
5.08

###

Exercise: for every item that follows, state its recorded LD0 (maximum dose not causing any mortality in 8 days).
System: mice
assay.summary: Study of the acute toxicity
Type: in vivo
test.settings: oral

>>> print(df.to_string())
                                   compound       result
0  CC(C)N(CC(O)COc1ccccc1C(=O)Nc1cccc2[nH]ccc12)C(C)C (centres unmarked)  ≥ 400 mg/kg

Record LD0 (maximum dose not causing any mortality in 8 days) per entry; entries follow.
1. CCC(C)(C)NCC(O)COc1ccccc1C(=O)Nc1cccc2[nH]ccc12 (centres unmarked)
2. CC(C)(C)NCC(O)COc1ccccc1C(=O)Nc1cccc2[nH]ccc12 (centres unmarked)

Result:
1: > 400 mg/kg; 2: > 400 mg/kg

Record LD0 (maximum dose not causing any mortality in 8 days) per entry; entries follow.
1. CC(C)N(CCOc1ccccc1C(=O)Nc1cccc2[nH]ccc12)C(C)C
2. CC(C)(C)NCCCCOc1ccccc1C(=O)Nc1cccc2[nH]ccc12

Result:
["> 400 mg/kg", "> 400 mg/kg"]
